- testName: Pharmacokinetic study on Bioadhesive Composition in Beagle dogs
- conditionSet: both, beagle, dog, plasma, inhaled or intranasal, 1 mg, Tmax, Beagle dogs; analyte Granisetron; nasal GNS-B01 1.0 mg/dog
quantityKind: Tmax (min)
Numbers only, in min.

[Q] // returns reported Tmax for input CN1[C@@H]2CCC[C@H]1C[C@@H](NC(=O)c1nn(C)c3ccccc13)C2 [Granisetron, reference compound]
[A] 26.3

----------
- testName: Pharmacokinetic study on Bioadhesive Composition in Beagle dogs
- conditionSet: both, beagle, dog, plasma, inhaled or intranasal, 0.5 mg, t1/2, Beagle dogs; analyte Granisetron; nasal GNS-B01 0.5 mg/dog
quantityKind: half-life (min)
Answers are plain numbers, in min.

[Q] // returns reported half-life for input CN1[C@@H]2CCC[C@H]1C[C@@H](NC(=O)c1nn(C)c3ccccc13)C2 [Granisetron, reference compound]
[A] 59.8

----------
- testName: Pharmacokinetic study on Bioadhesive Composition in Beagle dogs;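 further: eight Beagle dogs (4 male, 4 female), five-period crossover with 3-day washouts, plasma levels quantified by validated LC-MS/MS, oral dosing after roughly 16 h fast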
- conditionSet: both, beagle, dog, plasma, inhaled or intranasal, 1 mg, Tmax (range), Beagle dogs; intranasal administration 1.0 mg/dog
quantityKind: Tmax

[Q] // returns reported Tmax for input CN1[C@@H]2CCC[C@H]1C[C@@H](NC(=O)c1nn(C)c3ccccc13)C2 [Granisetron, reference compound]
[A] 15 to 45 min
